We begin with a simple list: items and their reported SI (Selectivity Index, CC50/IC50).
System: SARS-COV-2
Protocol summary: microbe, parasite or virus in culture
Type: cell-based
Design: unit not given here
Condition description: SARS-COV-2; values >50 assumed to be 50

>>> measured_value("COc1cc2cc3c(c(-c4cc5c(cc4OC(C)=O)OCO5)c2cc1OC)C(=O)OC3 [Example 274]")
19.61
>>> measured_value("COc1cc2cc3c(c(-c4cnc(N5CCC[C@@H]5CO)nc4)c2cc1OC)C(=O)OC3.Cl [Example 82]")
3.93
>>> measured_value("CCC(C)N(C)c1ncc(-c2c3c(cc4cc(OC)c(OC)cc24)COC3=O)cn1.Cl (centres unmarked) [Example 100]")
96.21
>>> measured_value("COc1cc2cc3c(c(-c4ccc(N5CCn6c(nnc6C(F)(F)F)C5)nc4)c2cc1OC)C(=O)OC3 [Example 240]")
1.00

State its SI (Selectivity Index, CC50/IC50): COc1cc2cc3c(c(-c4cncc(OCCN(C)C)c4)c2cc1OC)C(=O)OC3.Cl [Example 187] 1.0

State its SI (Selectivity Index, CC50/IC50): COc1cc2cc3c(c(N4CCN(c5cc(Cl)nc(SC)n5)CC4)c2cc1OC)C(=O)OC3 [Example 130] 1.0

State its SI (Selectivity Index, CC50/IC50): COc1cc2cc3c(c(-c4ccc5nccnc5c4)c2cc1OC)C(=O)OC3 [Example 40] 76.71

State its SI (Selectivity Index, CC50/IC50): COc1cc2cc3c(c(N4CC(C)CC(C)C4)c2cc1OC)C(=O)OC3 (centres unmarked) [Example 4] 4.45
